- MEASURED_TARGET: CYP2C8 (Homo sapiens, UniProt P10632)
- Sequence (P10632 1-490): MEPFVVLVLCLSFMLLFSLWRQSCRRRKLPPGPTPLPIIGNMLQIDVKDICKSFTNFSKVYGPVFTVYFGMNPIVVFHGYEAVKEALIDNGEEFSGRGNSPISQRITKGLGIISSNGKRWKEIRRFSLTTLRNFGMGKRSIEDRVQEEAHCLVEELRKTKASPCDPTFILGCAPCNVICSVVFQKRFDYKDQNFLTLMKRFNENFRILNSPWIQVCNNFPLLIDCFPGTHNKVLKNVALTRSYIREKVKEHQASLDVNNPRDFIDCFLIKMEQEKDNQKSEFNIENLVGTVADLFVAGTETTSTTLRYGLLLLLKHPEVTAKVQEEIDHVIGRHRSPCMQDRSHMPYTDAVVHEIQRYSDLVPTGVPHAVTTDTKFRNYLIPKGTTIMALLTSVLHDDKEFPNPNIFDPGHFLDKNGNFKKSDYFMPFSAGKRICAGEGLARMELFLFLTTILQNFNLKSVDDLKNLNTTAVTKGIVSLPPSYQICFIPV
- EXPERIMENT: Reversible inhibition kinetics (Lineweaver-Burk), CYP2C8 in HLMs
- Assay type: in vitro ADME
- Set-up: 0.20 mg/mL HLMs or 0.20 mg/mL RLMs; from tissue; host or cells: human liver microsomes
- PARTICULARS: human, human liver microsomes, probe amodiaquine
READOUT: Ki at 30 min
Remember to follow the number with its unit.

For the compound Cc1ccc(Sc2ccccc2N2CCNCC2)c(C)c1 , what Ki at 30 min is on record?
2.96 µM

Sourced from paper PMC10544575
